Test: intrinsic fluorescence of library compounds, ex339/em460 – biochemical, MLSMR library, data from DPM-DC assay, artefact control, profiling panel (AID 709);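 note: signal is the first read of a kinetic run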
Settings: compound autofluorescence, ex339/em460 nm, NADH buffer; at 10 µM; hits give high values; 1 = no-compound wells, NADH background
About 3,600 (5.5%) of roughly 65,000 compounds were called active. Shown is part of a subset that was picked to be rich in actives.
// reported fluorescence fold increase per item
Lab note: record just the number, no unit beside it.

Previously resolved entries follow.
compound="CCOc1cccc(=O)c2c(C)n(CC3CCCO3)c(C)c12 (stereo unspecified)" observed_measurement=1.05
compound=O=C(NCc1cn2ccsc2n1)Nc1ccc(Cl)cc1 observed_measurement=1.11
compound=O=C(NCc1ccc(Cl)cc1)c1cc2c(nc3sccn32)s1 observed_measurement=2.6
compound=CN1CCN(Cc2c(O)ccc3c2oc(=O)c2ccccc23)CC1 observed_measurement=1.15
compound=O=c1oc2c(CN3CCCCC3)c(O)ccc2c2c1CCCCC2 observed_measurement=2.34

Now, please, on to the next compound.
Query fluorescence fold increase for O=c1cc(Cn2nnc(-c3ccc(Cl)cc3)n2)nc2sccn12
1.22
